Below, each of the compounds is paired with its reported pIC50 value.
Molecular target: IDH1-R132H recombinant protein (Homo sapiens (Human), UniProt O75874, R132H)
Sequence (O75874 whole entry R132H): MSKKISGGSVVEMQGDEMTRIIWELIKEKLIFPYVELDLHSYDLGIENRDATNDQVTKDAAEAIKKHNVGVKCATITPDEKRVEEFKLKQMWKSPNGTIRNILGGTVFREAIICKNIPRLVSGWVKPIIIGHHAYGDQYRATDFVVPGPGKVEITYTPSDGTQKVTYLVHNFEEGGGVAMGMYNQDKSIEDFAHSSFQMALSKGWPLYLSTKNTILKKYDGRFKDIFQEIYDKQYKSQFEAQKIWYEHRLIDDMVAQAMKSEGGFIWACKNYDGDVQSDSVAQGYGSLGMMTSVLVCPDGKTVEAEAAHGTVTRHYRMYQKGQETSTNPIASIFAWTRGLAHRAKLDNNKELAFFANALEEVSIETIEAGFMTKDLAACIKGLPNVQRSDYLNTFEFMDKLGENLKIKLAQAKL
Test: IDH1-R132H enzymatic assay (inhibition of NADPH consumption, diaphorase/resazurin readout)
Details: read-out: Enzyme IDH1 R132H IC50 (Range)
pIC50: −log10 of the molar value.

Example results:
C[C@H](Nc1nccc(-n2cccc2C(F)(F)F)n1)c1cc2cc(Cl)ccc2[nH]c1=O [Compound I-65] = 6.00 to 7.00
Cc1cc(-c2ccnc(N[C@@H](C)c3cc4cc(Cl)ccc4[nH]c3=O)n2)n(C)n1 [Compound I-76] = 5.00 to 6.00
CC(C)NC(=O)c1ccnc(N[C@@H](C)c2cc3cc(Cl)ccc3[nH]c2=O)n1 [Compound I-117] = 6.00 to 7.00
CC(C)n1nccc1-c1ccnc(N[C@@H](C)c2cc3cc(Cl)ccc3[nH]c2=O)n1 [Compound I-75] = > 7.00
CC(C)CC(c1ccnc(N[C@@H](C)c2cc3cc(Cl)ccc3[nH]c2=O)n1)S(C)(=O)=O (stereo partly drawn) [Compound I-118] = 6.00 to 7.00

Attention now turns to another entry.
# pIC50 lookup, item C[C@H](Nc1nccc(-c2cnoc2)n1)c1cc2cc(Cl)ccc2[nH]c1=O [Compound I-70]
5.00 to 6.00

###

Test system: HCT116 isogenic IDH1-R132C mutant cells
Assay: Cellular 2-HG assay using HCT116 mutant IDH1 cells (R132C), RapidFire mass spectrometry
Type: cell-based
Details: Homo sapiens, HCT-116; cellular 2-HG level, HCT116 IDH1-R132C cells, 24 hours; read-out: HCT116 IDH1 R132C IC50 (Range)
Protocol: Example 106—Cellular 2-HG assay using HCT116 mutant IDH1 cells HCT116 isogenic IDH1-R132H and IDH1-R132C mutant cells were cultured in growth media (McCoy's 5 A, 10% fetal bovine serum, 1× antibiotic-antimycotic solution and 0.3 mg/mL G418) in 5% CO2 in an incubator at 37° C. […] An aliquot of 125 μL of extracted supernatant was analyzed by RapidFire high-throughout-mass spectrometry (Agilent) to determine the cellular 2-HG level. […]
pIC50: −log10 of the molar value.
Below, each of the compounds is paired with its reported pIC50 value.

C[C@H](Nc1nccc([S@@+](C)[O-])n1)c1cc2cc(Cl)ccc2[nH]c1=O [Compound I-112] = 5.00 to 6.00
COc1nc(N[C@@H](C)c2cc3cc(Cl)c(O[C@H](C)c4ccccn4)cc3[nH]c2=O)ncc1C#N [Compound I-158] = 6.00 to 7.00
CC(C)n1nccc1-c1ccnc(N[C@@H](C)c2cc3cc(Cl)ccc3[nH]c2=O)n1 [Compound I-75] = 5.00 to 6.00

Attention now turns to another entry.
# pIC50 lookup, item COc1nc(N[C@@H](C)c2cc3cc(Cl)cnc3[nH]c2=O)ncc1C#N [Compound I-155]
5.00 to 6.00
